Values compiled from PubChem BioAssay (EPA / NIEHS).

Read-out: Macrophage colony-stimulating factor (MCSF), CSF1 (gene 1435)
methodDescription: BSK_LPS_MCSF: BioMAP Diversity Plus: LPS Assay for Macrophage colony-stimulating factor (MCSF) Biomarker Activity (AID 2283083)
conditionContext: primary human HUVEC with PBMC; actives raise or lower the signal
Calls of active or inactive are those of the source. How the source made its calls: active means hit-call score of the fitted dose curve at least 0.9, where 1 is the maximum; inactive means score below 0.9.
Classes used: t = active, f = inactive

> print(dat)
                                   molecule  label
1                     Oc1cc2ccccc2c2ccccc12      t
2  Cc1cc(CCN2CCN(c3nsc4ccccc34)CC2)cc2c1NC(=O)CC2(C)C      t
3  Cc1oc(-c2ccccc2)nc1CCOc1ccc(C[C@H](Nc2ccccc2C(=O)c2ccccc2)C(=O)O)cc1      t
4  C#C[C@]1(O)CC[C@H]2[C@@H]3CCC4=CC(=O)CC[C@@H]4[C@H]3CC[C@@]21C      t
5  NC(=O)N1C(=O)C(C(=O)c2cc(Cl)cs2)c2cc(F)c(Cl)cc21 (centres undefined)      f
6  CCc1ccc(CCOc2ccc(CC3SC(=O)NC3=O)cc2)nc1 (centres undefined)      f
7                      CCCOC(=O)c1ccc(O)cc1      f
8                     CCCCCCCCCCCCN1CCCC1=O      t
9  CC[C@H](c1ccc(O)cc1)[C@@H](CC)c1ccc(O)cc1      t

----------
Read-out: adenosine kinase (ADK) gene, ADK (gene 132)
methodDescription: LTEA_HepaRG_ADK: Life Technologies and Expression Analysis (LTEA) Assay for adenosine kinase (ADK) gene using HepaRG (AID 2283471)
conditionContext: mRNA level, 48 h; actives raise or lower the signal
The source made the active and inactive calls. How the source made its calls: active means hit-call score of the fitted dose curve at least 0.9, where 1 is the maximum; inactive means score below 0.9.
Classes used: TRUE (active), FALSE (inactive)

> print(dat)
                                    molecule  label
 1  CCCCC(CC)COC(=O)CCCCC(=O)OCC(CC)CCCC (stereo unspecified)  FALSE
 2  C[C@@H]1C[C@H]2[C@@H]3CCC4=CC(=O)C=C[C@]4(C)[C@@]3(F)[C@@H](O)C[C@]2(C)[C@@]1(O)C(=O)COP(=O)(O)O  FALSE
 3  CCC(C)(C)C1CCC(O)CC1 (stereo unspecified)  FALSE
 4   O=C(O)c1ccccc1C(c1ccc(O)cc1)c1ccc(O)cc1  FALSE
 5             COCC(C)O (stereo unspecified)  FALSE
 6  CCCCC(CC)COC(=O)CCCCC(=O)OCc1ccccc1 (stereo unspecified)  FALSE
 7  Cc1oc(-c2ccccc2)nc1CCOc1ccc(C[C@H](Nc2ccccc2C(=O)c2ccccc2)C(=O)O)cc1   TRUE
 8  CCc1ccc(CCOc2ccc(CC3SC(=O)NC3=O)cc2)nc1 (stereo unspecified)  FALSE
 9                      CN1CCC[C@H]1c1cccnc1  FALSE
10      CCCCCCCCOC(=O)CCCCCCCCC(=O)OCCCCCCCC  FALSE
11   CC[C@H](C)[C@@H](C(=O)O)n1sc2ccccc2c1=O  FALSE
12                                  CCCCOCCO  FALSE
13         O=C(OCCOCCOC(=O)c1ccccc1)c1ccccc1  FALSE
14               CC(C)(C)c1cccc(C(C)(C)C)c1O  FALSE
15  CCN(CC)CCNc1ccc(CNC=O)c2sc3ccc(OC)cc3c(=O)c12   TRUE
16                            CCCCCCCCC(=O)O  FALSE

----------
methodDescription: BSK_BE3C_SRB: Viability Assessment in the BioMAP Diversity Plus: BE3C Assay (AID 2283028);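 further: measured 24 h after chemical dosing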
conditionContext: primary human bronchial epithelial cells
Active and inactive are the calls of the source. The calls were made as follows: active = hit-call score of the fitted dose curve at least 0.9, where 1 is the maximum; inactive = score below 0.9.
Classes used: 1 (yes) for active, 0 (no) for inactive

> print(dat)
                                    compound    label
 1  NCC(F)(F)C(F)(F)C(F)(F)C(F)(F)C(F)(F)C(F)(F)C(F)(F)F   0 (no)
 2  CCc1nn(C2CCCCC2)c2cc(C3(C#N)CCC(C(=O)O)CC3)ccc12 (stereo not given)   0 (no)
 3                             CCCCCCCC(=O)O   0 (no)
 4                   O=[N+]([O-])c1ccc(O)cc1   0 (no)
 5                      CN1CCC[C@H]1c1cccnc1   0 (no)
 6         O=c1c(-c2ccc(O)cc2)coc2cc(O)ccc12   0 (no)
 7  Cc1oc(-c2ccccc2)nc1CCOc1ccc(C[C@H](Nc2ccccc2C(=O)c2ccccc2)C(=O)O)cc1  1 (yes)
 8                              Oc1cccc(O)c1   0 (no)
 9                           CC(=O)CC(C)(C)O   0 (no)
10                     Oc1cc2ccccc2c2ccccc12  1 (yes)

----------
system: Oxysterols receptor LXR-alpha (Homo sapiens) (UniProt Q13133)
Sequence (Q13133 whole entry, looked up): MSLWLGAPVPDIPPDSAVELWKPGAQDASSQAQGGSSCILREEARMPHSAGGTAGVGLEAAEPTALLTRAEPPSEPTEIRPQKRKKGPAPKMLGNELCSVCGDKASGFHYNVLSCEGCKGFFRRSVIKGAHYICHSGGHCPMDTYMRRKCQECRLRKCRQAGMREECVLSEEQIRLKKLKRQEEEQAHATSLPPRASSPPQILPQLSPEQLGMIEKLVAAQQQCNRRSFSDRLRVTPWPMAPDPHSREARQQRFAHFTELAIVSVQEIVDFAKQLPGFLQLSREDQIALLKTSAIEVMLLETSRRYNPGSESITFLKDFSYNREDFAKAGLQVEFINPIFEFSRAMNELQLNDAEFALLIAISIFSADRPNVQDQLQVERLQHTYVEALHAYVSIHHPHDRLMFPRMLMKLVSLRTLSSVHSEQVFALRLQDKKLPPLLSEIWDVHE
methodDescription: ATG_LXRa_TRANS: Attagene TRANS-FACTORIAL HepG2 Assay for human Liver X Receptor alpha (LXRa) (AID 2282980)
conditionContext: HepG2 Attagene TRANS reporter, LXRa transactivation
Inconclusive results are not listed. Active and inactive are the calls of the source. Rule for the calls: active = hit-call score of the fitted dose curve at least 0.9, where 1 is the maximum; inconclusive = response in the unintended direction; inactive = score below 0.9.
Classes used: y (active), n (inactive)

> print(dat)
                                   compound  label
1    CC(O)C(=O)O (configuration not stated)      n
2             ClC1=C(Cl)C(Cl)(Cl)C(Cl)=C1Cl      n
3    CC(C)CCCCCCOC(=O)CCCCC(=O)OCCCCCCC(C)C      n
4  O=C(O)Cc1cc(I)c(Oc2cc(I)c(O)c(I)c2)c(I)c1      n
5  CCCOc1sc(C(=O)N2CCC(c3cc(CN)ccc3F)CC2)c(C)c1Br      y
6                   O=[N+]([O-])c1ccc(O)cc1      n
7  N#C[C@@H]1CC(F)(F)CN1C(=O)CNC1CC2CCC(C1)N2c1ncccn1 (some centres not stated)      n

----------
Read-out: Broad substrate specificity ATP-binding cassette transporter ABCG2 (Homo sapiens) (UniProt Q9UNQ0)
Sequence (Q9UNQ0 whole entry, looked up): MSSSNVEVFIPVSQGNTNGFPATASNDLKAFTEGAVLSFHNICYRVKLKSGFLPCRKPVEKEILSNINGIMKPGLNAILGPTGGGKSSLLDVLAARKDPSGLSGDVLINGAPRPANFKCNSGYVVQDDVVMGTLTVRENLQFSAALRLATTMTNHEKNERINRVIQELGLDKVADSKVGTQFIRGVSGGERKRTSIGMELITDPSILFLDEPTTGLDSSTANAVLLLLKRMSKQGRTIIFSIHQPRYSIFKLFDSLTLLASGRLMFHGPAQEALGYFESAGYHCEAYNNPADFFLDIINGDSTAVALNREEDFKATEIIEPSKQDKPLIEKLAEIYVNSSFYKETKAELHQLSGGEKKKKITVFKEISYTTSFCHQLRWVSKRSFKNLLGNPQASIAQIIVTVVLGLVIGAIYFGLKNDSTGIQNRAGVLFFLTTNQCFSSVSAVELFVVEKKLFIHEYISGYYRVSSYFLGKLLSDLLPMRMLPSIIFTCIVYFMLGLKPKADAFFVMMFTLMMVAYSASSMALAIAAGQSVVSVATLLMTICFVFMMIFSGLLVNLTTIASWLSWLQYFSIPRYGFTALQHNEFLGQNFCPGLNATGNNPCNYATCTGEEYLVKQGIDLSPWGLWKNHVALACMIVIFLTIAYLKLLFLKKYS
methodDescription: LTEA_HepaRG_ABCG2: Life Technologies and Expression Analysis (LTEA) Assay for ABC Transporter (ABCG2) using HepaRG (AID 2283465)
conditionContext: mRNA level, 48 h; actives raise or lower the signal
The source made the active and inactive calls. How the source made its calls: active means hit-call score of the fitted dose curve at least 0.9, where 1 is the maximum; inactive means score below 0.9.
Classes used: active, inactive

> print(dat)
                                    compound     label
 1                           CC(=O)CC(C)(C)O  inactive
 2    CC(C)CCCCCCOC(=O)CCCCC(=O)OCCCCCCC(C)C  inactive
 3  CC#C[C@]1(O)CC[C@H]2[C@@H]3CCC4=CC(=O)CCC4=C3[C@@H](c3ccc(N(C)C)cc3)C[C@@]21C    active
 4                              CCCCCCC(=O)O  inactive
 5  NC(=O)N1C(=O)C(C(=O)c2cc(Cl)cs2)c2cc(F)c(Cl)cc21 (configuration not stated)    active
 6                                  CCCCOCCO  inactive
 7             ClC1=C(Cl)C(Cl)(Cl)C(Cl)=C1Cl  inactive
 8       COCC(C)O (configuration not stated)  inactive
 9        CC(O)CO (configuration not stated)  inactive
10                      CCCOC(=O)c1ccc(O)cc1  inactive
11                                  CN(C)C=O  inactive
12                        Cc1cc(C)c(O)c(C)c1  inactive
13              c1ccc2cc3c(ccc4ccccc43)cc2c1  inactive
14   CC[C@H](C)[C@@H](C(=O)O)n1sc2ccccc2c1=O  inactive
15  COCC(C)OCC(C)O (configuration not stated)  inactive
16  CCc1nn(C2CCCCC2)c2cc(C3(C#N)CCC(C(=O)O)CC3)ccc12 (configuration not stated)    active
17  CC(C)(C)CC(C)(C)c1ccc(O)c(-n2nc3ccccc3n2)c1    active
18          CCOC(=O)CC(O)(CC(=O)OCC)C(=O)OCC  inactive
19      CCCCCCCCOC(=O)CCCCCCCCC(=O)OCCCCCCCC  inactive
20  CCCCC(CC)COC(=O)CCCCC(=O)OCc1ccccc1 (configuration not stated)  inactive
21  O=C(O)Cc1cc(I)c(Oc2cc(I)c(O)c(I)c2)c(I)c1    active
22         CCCCCCCCCCCCCCCS(=O)(=O)Oc1ccccc1  inactive
